System: HT-1080
testDescription: Modulatory profiling: Alamar Blue viability, lethal compound cotreated with death modulator (EC50, AUC)
Format: cell-based
conditionSummary: HT-1080, modulator NMMA
Below, each of the compounds is paired with its reported AUC HT.NMMA value.
Provide a numeric answer; units are not to be included.

In the examples that follow, each entry is paired with its recorded AUC HT.NMMA.
- CN(C)CCNC(=O)c1cc2c(s1)-c1ccc(Cl)cc1SC2: 0.004761
- O=C1c2ccccc2-c2onc3ccc(Oc4ccccc4)c1c23: −0.02292

Input line: For "C(=N\Nc1nc2ccccc2s1)/c1ccccn1" , write its AUC HT.NMMA.
Output line: −0.01196

Input line: For "Cc1cccnc1Nc1nc(-c2ccccn2)cs1" , write its AUC HT.NMMA.
Output line: −0.04118
